Target: EGFR L858R/C797S (Homo sapiens, UniProt P00533, C797S/L858R)
Sequence (P00533 25-1210 C797S/L858R): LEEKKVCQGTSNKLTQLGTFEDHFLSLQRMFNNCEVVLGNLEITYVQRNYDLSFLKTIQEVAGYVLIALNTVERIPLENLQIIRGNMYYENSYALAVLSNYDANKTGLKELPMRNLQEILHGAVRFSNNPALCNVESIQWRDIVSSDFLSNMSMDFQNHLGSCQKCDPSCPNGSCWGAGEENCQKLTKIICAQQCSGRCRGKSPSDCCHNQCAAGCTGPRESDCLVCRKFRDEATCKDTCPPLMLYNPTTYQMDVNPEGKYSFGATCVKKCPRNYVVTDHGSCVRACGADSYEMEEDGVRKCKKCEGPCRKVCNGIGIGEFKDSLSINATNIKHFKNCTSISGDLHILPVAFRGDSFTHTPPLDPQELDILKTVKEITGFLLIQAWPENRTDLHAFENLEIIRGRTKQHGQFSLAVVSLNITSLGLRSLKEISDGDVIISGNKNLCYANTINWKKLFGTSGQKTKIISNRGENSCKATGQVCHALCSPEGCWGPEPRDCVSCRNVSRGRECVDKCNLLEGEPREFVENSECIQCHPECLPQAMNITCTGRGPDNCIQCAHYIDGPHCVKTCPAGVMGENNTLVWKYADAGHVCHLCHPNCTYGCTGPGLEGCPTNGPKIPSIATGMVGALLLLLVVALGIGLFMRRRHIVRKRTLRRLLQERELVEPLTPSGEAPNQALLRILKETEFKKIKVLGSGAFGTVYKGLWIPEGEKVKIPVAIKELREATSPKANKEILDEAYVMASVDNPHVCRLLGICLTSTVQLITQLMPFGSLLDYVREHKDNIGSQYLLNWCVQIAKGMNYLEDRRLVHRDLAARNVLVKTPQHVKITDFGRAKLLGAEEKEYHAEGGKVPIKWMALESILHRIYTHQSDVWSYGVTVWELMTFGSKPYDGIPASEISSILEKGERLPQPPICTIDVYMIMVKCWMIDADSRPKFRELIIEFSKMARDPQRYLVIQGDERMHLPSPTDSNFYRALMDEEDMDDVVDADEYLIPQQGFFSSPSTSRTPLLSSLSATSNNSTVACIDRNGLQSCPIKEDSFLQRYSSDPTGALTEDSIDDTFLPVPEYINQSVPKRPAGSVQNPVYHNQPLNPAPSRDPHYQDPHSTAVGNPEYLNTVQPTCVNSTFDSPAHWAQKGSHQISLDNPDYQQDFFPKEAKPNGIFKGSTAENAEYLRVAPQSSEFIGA
Experiment: Biochemical EGFR kinase inhibition assay (Lance Ultra TR-FRET), double mutant L858R/C797S
Settings: Km ATP; read-out: IC50 L858R/C797S (nM), Km ATP
Parameter: IC50 (nM)

Solved entries:
[
  {
    "Compound": "O=S(=O)(C1CC1)n1cc(-c2nccc(Nc3cc(N[C@H]4CC[C@@H](NCCF)CC4)c(C#Cc4cnn(CC(F)(F)F)c4)cn3)n2)cn1",
    "Target or system": "EGFR L858R/C797S (Homo sapiens, UniProt P00533, C797S/L858R)",
    "IC50 [nM]": 9.3
  },
  {
    "Compound": "O=S(=O)(C1CC1)n1cc(-c2nccc(Nc3cc(NC4CCC(O)CC4)c(C#CC4(O)CCOC4)cn3)n2)cn1 (stereo not drawn)",
    "Target or system": "EGFR L858R/C797S (Homo sapiens, UniProt P00533, C797S/L858R)",
    "IC50 [nM]": 2
  }
]

P = CC1(CO)CCN(c2cc(Nc3ccnc(-c4cnn(S(=O)(=O)C5CC5)c4)n3)ncc2C#CC2CCCO2)CC1 (stereo not drawn)
Q = CC1(O)CCN(c2cc(Nc3ccnc(-c4cnn(S(=O)(=O)C5CC5)c4)n3)ncc2C#Cc2ncc(CN3CCOCC3)cn2)CC1
R = O=S(=O)(C1CC1)n1cc(-c2nccc(Nc3cc(N4C[C@H]5C[C@@]5(CO)C4)c(C#Cc4cnn(C(F)(F)F)c4)cn3)n2)cn1
Incoming: Order by IC50, ascending. In your reply, arrange the labels in the requested order.
Outgoing: P, Q, R
(P: 1.3 nM, Q: 2.1 nM, R: 245 nM)

---

Molecular target: EGFR L858R/C797S (Homo sapiens, UniProt P00533, C797S/L858R)
Assay: Biochemical EGFR kinase inhibition assay (Lance Ultra TR-FRET), double mutant L858R/C797S
Conditions: ATP at Km; read-out: IC50 L858R/C797S (nM), Km ATP
Parameter: IC50 (nM)

[
  {
    "Item smiles": "CN(C)CC1(C)CCN(c2cc(Nc3ccnc(-c4cnn(S(=O)(=O)C5CC5)c4)n3)ncc2C#Cc2cnn(C3CC3)c2)CC1",
    "Target or system": "EGFR L858R/C797S (Homo sapiens, UniProt P00533, C797S/L858R)",
    "Quantity unit": "nM",
    "IC50": 1.4
  },
  {
    "Item smiles": "CC(C)(O)[C@H]1CC[C@@H](Nc2cc(Nc3ccnc(-c4cnn(S(=O)(=O)C5CC5)c4)n3)ncc2C#Cc2cnn(CC(F)F)c2)CC1",
    "Target or system": "EGFR L858R/C797S (Homo sapiens, UniProt P00533, C797S/L858R)",
    "Quantity unit": "nM",
    "IC50": 16.3
  }
]

a = CN(C)C(=O)c1ccc(C#Cc2cnc(Nc3ccnc(-c4cnn(S(=O)(=O)C5CC5)c4)n3)cc2N2CCC(C)(CO)CC2)cc1
b = CC1(CO)CCN(c2cc(Nc3ccnc(-c4cnn(S(=O)(=O)C5CC5)c4)n3)ncc2C#CC2(O)CCCCC2)CC1
Incoming: So which one has the bigger IC50 here, a or b ? Indicate your choice by writing its label.
Outgoing: b
(b: 33.5 nM, a: 0.9 nM)

I = CN(C)C[C@H]1CC[C@@H](Nc2cc(Nc3ccnc(-c4cnn(S(=O)(=O)C5CC5)c4)n3)ncc2C#Cc2cnn(C(F)F)c2)CC1
II = CC1(CO)CCN(c2cc(Nc3ccnc(-c4cnn(S(=O)(=O)C5CC5)c4)n3)ncc2C#CC2CCCCC2)CC1
Incoming: Please indicate which entry, I or II , has the lower recorded IC50 value. Lab note: record the label of whichever item you select.
Outgoing: I
(I: 1.9 nM, II: 100 nM)
